tested on: P. aeruginosa 2297 (AmpC wt); test: MIC determination, broth microdilution (CLSI); type: cell-based; conditions: Pseudomonas aeruginosa, strain 7
MEASUREMENT TYPE: MIC (µg/mL)
Quick note: give the figure in µg/mL, leave out the unit.

In [3]: df
Out[3]:
                                   compound                        target  numeric_readout
0  C[C@H]1[C@H](NC(=O)/C(=N\OCCOc2ccc(C(=N)N)cc2)c2csc(N)n2)C(=O)N1OCS(=O)(=O)O [Example 12]  P. aeruginosa 2297 (AmpC wt)                8
1  CC1(C)[C@H](NC(=O)/C(=N\OCCOc2cc(C(=N)N)ccn2)c2csc(N)n2)C(=O)N1OS(=O)(=O)O [Example 22]  P. aeruginosa 2297 (AmpC wt)               32
2  CC1(C)[C@H](NC(=O)/C(=N\OCCOc2ccc(C(=N)NCC[N+]3(C)CCCC3)cc2)c2csc(N)n2)C(=O)N1OS(=O)(=O)O.O=C([O-])C(F)(F)F [Example 79]  P. aeruginosa 2297 (AmpC wt)                8
3  C[C@H]1[C@H](NC(=O)/C(=N\OCCOc2ccc(C(=N)N)cc2Cl)c2csc(N)n2)C(=O)N1S(=O)(=O)O [Example 20]  P. aeruginosa 2297 (AmpC wt)                8
4  CNC(=N)c1ccc(OCCO/N=C(\C(=O)N[C@@H]2C(=O)N(S(=O)(=O)O)[C@H]2C)c2csc(N)n2)cc1 [Example 68]  P. aeruginosa 2297 (AmpC wt)                8

// fetch P. aeruginosa 2297 (AmpC wt) MIC for Cc1cc(OCCO/N=C(\C(=O)N[C@@H]2C(=O)N(OS(=O)(=O)O)C2(C)C)c2csc(N)n2)ccc1C(=N)N [Example 13]
16

Source: patent US9556165B2
